Provenance of the data: PubChem BioAssay (NCI)

experiment: NCI Yeast Anticancer Drug Screen. Data for the sgs1 mgt1 strain (AID 161);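 further: 0% = growth of cultures given vehicle only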; conditions: S. cerevisiae sgs1 mgt1 strain; at 50.0 µM unless noted
Compounds without any hit were thinned out: in the full panel of roughly 79,000, 15% have a hit. The source made the active and inactive calls. No stated cut-off is given here; in the data, active means growth inhibition above about 70%; inactive means the rest.
Labels: active, inactive

INSERT INTO measurements (compound, qualitative_label) VALUES
  ('COC1=CC(=O)c2cc3ccc(OC)c(N)c3nc2C1=O', 'inactive'),
  ('Clc1ccc(Oc2ncnc3nc[nH]c23)cc1', 'inactive'),
  ('CCOC(=O)C(CCc1ccccc1)(NC(C)=O)C(=O)OCC', 'inactive'),
  ('CN(C)CCC(=O)C(=Cc1ccc(Cl)c(Cl)c1)C(=O)CCN(C)C', 'active'),
  ('O=C(Nc1ccc(Cl)cc1)Nc1nnc(-c2cccc(Cl)c2)o1', 'inactive'),
  ('Nc1cc(C(=O)O)[nH]c(=O)n1', 'inactive'),
  ('C=C(CC(O)(C(F)(F)F)C(F)(F)F)CC(O)(C(F)(F)F)C(F)(F)F', 'inactive'),
  ('CS(=O)(=O)c1ncc(Br)cn1', 'inactive'),
  ('CN(C)c1ccc(C(c2ccc(C(c3ccc(N(C)C)cc3)c3ccc(N(C)C)cc3)cc2)c2ccc(N(C)C)cc2)cc1', 'inactive'),
  ('C/C=C/C=C/C(=O)OCCCC', 'inactive'),
  ('CCC(CC)C(=O)OC1CCCCC1', 'inactive'),
  ('CCN(CC)CC(=O)Nc1cc(Cl)ccc1OC', 'inactive'),
  ('O=S(=O)(Nc1cccc(O)c1)c1ccccc1', 'inactive'),
  ('O=C(O)c1ccccc1-c1ccccc1', 'inactive'),
  ('COC1=CC(=O)C2CC=CC(CC(=O)O)C2(C)C1=O (centres undefined)', 'inactive'),
  ('CC1CN(S(=O)(=O)c2ccccc2)CCN1S(=O)(=O)c1ccccc1 (centres undefined)', 'inactive'),
  ('COc1ccc(C=Nc2ccccc2C(=O)O)cc1', 'inactive'),
  ('CC1(O)CC(=O)c2c(cc3ccc(-c4c5c(c(O)c6c(O)cccc46)C(=O)CC(C)(O)C5)c(O)c3c2O)C1 (centres undefined)', 'inactive'),
  ('O=C(O)Cc1cc(=O)oc2ccccc12', 'inactive'),
  ('COc1ccc(/C(=N\NC(=S)NN)C(c2ccc(OC)cc2)C2C(=O)Oc3ccccc32)cc1 (centres undefined)', 'inactive'),
  ('CCCCCCCOC(=O)CO', 'inactive'),
  ('CCn1c2ccccc2c2ccccc21', 'inactive'),
  ('C=CCSC[C@H](NC(=O)COc1ccccc1)C(=O)NC(C(=O)OCc1ccc([N+](=O)[O-])cc1)=C(C)C', 'inactive'),
  ('O=C(OC(c1ccccc1)C(c1ccccc1)N1CCOCC1)c1ccc([N+](=O)[O-])cc1 (centres undefined)', 'inactive');

* * *

Assay: NCI Yeast Anticancer Drug Screen. Data for the bub3 strain (AID 167)
Conditions: S. cerevisiae bub3 mutant strain, stronger effect = higher value; at 50.0 µM unless noted
Description: Growth inhibition of yeast strains with defined genetic alterations is measured as a screen for potential anti-cancer activity. Selected strains with alterations in DNA damage repair or cell cycle control were exposed to compounds and growth inhibition was measured relative to vehicle treated controls. The strain used in this assay is bub3
This is part of a sample that, as a whole, favours compounds with a hit. Of some 79,000 tested, about 15% had one in any assay.
quantity-measured: growth inhibition (%)

INSERT INTO assay_data (compound, quantity_measured, unit_label, reported_value) VALUES
  ('O=c1cc(N2CCOCC2)n2ccccc2n1', 'growth inhibition', '%', -8.35),
  ('CCN(CCO)c1cccc(C)c1', 'growth inhibition', '%', -17.4),
  ('COc1ccc(NC(=O)CC(=O)n2nc(-c3ccccc3)c(N=Nc3ccccc3C(=O)O)c2-c2ccccc2)cc1', 'growth inhibition', '%', 2.25),
  ('O=P(CSCCO)(c1ccccc1)c1ccccc1', 'growth inhibition', '%', -11.9),
  ('N#C/C(=C\c1cccc2ccccc12)c1ccc(Cl)cc1', 'growth inhibition', '%', -2.6),
  ('CC(=O)Nc1c(C)cc([N+](=O)[O-])c2ccccc12', 'growth inhibition', '%', 8.05),
  ('C=C(COc1ccc(OC)cc1)C(C)(C)C', 'growth inhibition', '%', 14.7),
  ('CC(=O)c1ccccc1OB(F)F', 'growth inhibition', '%', 1.05),
  ('CCC(CC)NC(CC)COC(=O)c1ccc(N)cc1 (centres undefined)', 'growth inhibition', '%', 5.8),
  ('CC(C)CCC(C)C1CCC2C3CCC4CC(=O)CC4(C)C3CCC12C (centres undefined)', 'growth inhibition', '%', -11.6),
  ('CCN1CCN(c2nc3ccccc3c3c2CCOc2ccccc2-3)CC1', 'growth inhibition', '%', 0.25),
  ('C/C(=N\NS(=O)(=O)c1c(C)cc(C)cc1C)c1ccc[n+]([O-])n1', 'growth inhibition', '%', -12.8),
  ('CCOc1ccc(N2C(=O)/C(=C/c3ccc(N(CCC#N)CCC#N)cc3)N=C2c2cc([N+](=O)[O-])ccc2Cl)cc1', 'growth inhibition', '%', 9.3),
  ('N#CC1(C(=O)c2ccccc2)C=Cc2ccccc2N1C(=O)c1ccccc1 (centres undefined)', 'growth inhibition', '%', 26.2),
  ('CC(=O)Nc1ccc(C2NCc3cnc(C)nc3N2)cc1 (centres undefined)', 'growth inhibition', '%', 10.2),
  ('Cc1cc(=O)oc2c(C)c(OCCCOc3ccc4c(C)cc(=O)oc4c3C)ccc12', 'growth inhibition', '%', -30.8),
  ('CCCNC(=O)Cn1c(-c2ccccc2)cc2ccccc21', 'growth inhibition', '%', 27.9),
  ('N.N.N.N.O=C([O-])O.O=C([O-])[O-].[Co+3]', 'growth inhibition', '%', 24.2),
  ('Nc1ncnc2c1ncn2C1OC(CSCC(F)(F)F)C(O)C1O (centres undefined)', 'growth inhibition', '%', -7.8),
  ('CCOCCC(=O)OCCCl', 'growth inhibition', '%', 15.7),
  ('COc1ccc(NC(=O)CC(=O)N2N=C(N3c4ccccc4Sc4ccccc43)CC2c2ccccc2)cc1 (centres undefined)', 'growth inhibition', '%', 4.8),
  ('CCCN(CCC)CC(O)CNc1cc(OC)cc2cccnc12 (centres undefined)', 'growth inhibition', '%', 19.9),
  ('COc1cc2ccc(Cc3nccc4cc(OC)c(OC)cc34)cc2cc1OC', 'growth inhibition', '%', 97),
  ('O=c1c(-c2ccccc2)c[nH]c2ccccc12', 'growth inhibition', '%', -10.9);
